Molecular target: GABAA receptor α1 subunit (Homo sapiens)
Experiment: biochemical
Set-up: gene GABRA1
Endpoint: pEC50
Lab note: report pEC50 as minus log10 of the concentration in molar units, number only.

Query (compound): C#CCCO[C@H]1C[C@]2(C)C3CC[C@@]4(C)C(CC[C@@H]4OC)C3CC3(N=N3)C2C[C@@H]1O (stereo partly shown) ; field requested: pEC50 5.80

====

Target: GABAA receptor β3 subunit (Homo sapiens, UniProt P28472)
Construct: gene GABRB3; α1His-FLAG β3 receptor in HEK-293 cell membranes; adduct in TM3 peptide 278-313; with GABAA receptor α1 subunit (GABRA1)
Experiment: photoaffinity labeling with middle-down MS, competed by allopregnanolone; EC50 from [3H]muscimol binding enhancement (whole α[…]β[…] receptor)
Endpoint: pEC50
Lab note: report pEC50 as minus log10 of the concentration in molar units, number only.

Query (molecule): C#CCO[C@H]1CCC2C3CCC4C[C@H](OCc5ccc(C6(C(F)(F)F)N=N6)cc5)CC[C@]4(C)C3CC[C@@]21C (stereo partly shown) [KK202] ; field requested: pEC50 5.96
